# logP values compiled below
Test: physchem
Conditions: octanol/water
Returns: the value as a bare number; no unit string appended.

>  <mol-smiles>
CN(C)c1ccc2c(-c3cccs3)c3ccc(=[N+](C)C)cc-3[se]c2c1

>  <logP>
-0.31

$$$$

Attention now turns to another entry.
query: Return reported logP; argument: `CN(C)c1ccc2c(-c3ccccc3)c3ccc(=[N+](C)C)cc-3[se]c2c1`
result: 0.09

Reference source for all entries: ChEMBL document CHEMBL1152194
